Data provenance: patent US20260028365A1

Known pIC50 of a selection of molecules
experimental_target: Tyk2 (Homo sapiens (Human))
Sequence (P29597 whole entry): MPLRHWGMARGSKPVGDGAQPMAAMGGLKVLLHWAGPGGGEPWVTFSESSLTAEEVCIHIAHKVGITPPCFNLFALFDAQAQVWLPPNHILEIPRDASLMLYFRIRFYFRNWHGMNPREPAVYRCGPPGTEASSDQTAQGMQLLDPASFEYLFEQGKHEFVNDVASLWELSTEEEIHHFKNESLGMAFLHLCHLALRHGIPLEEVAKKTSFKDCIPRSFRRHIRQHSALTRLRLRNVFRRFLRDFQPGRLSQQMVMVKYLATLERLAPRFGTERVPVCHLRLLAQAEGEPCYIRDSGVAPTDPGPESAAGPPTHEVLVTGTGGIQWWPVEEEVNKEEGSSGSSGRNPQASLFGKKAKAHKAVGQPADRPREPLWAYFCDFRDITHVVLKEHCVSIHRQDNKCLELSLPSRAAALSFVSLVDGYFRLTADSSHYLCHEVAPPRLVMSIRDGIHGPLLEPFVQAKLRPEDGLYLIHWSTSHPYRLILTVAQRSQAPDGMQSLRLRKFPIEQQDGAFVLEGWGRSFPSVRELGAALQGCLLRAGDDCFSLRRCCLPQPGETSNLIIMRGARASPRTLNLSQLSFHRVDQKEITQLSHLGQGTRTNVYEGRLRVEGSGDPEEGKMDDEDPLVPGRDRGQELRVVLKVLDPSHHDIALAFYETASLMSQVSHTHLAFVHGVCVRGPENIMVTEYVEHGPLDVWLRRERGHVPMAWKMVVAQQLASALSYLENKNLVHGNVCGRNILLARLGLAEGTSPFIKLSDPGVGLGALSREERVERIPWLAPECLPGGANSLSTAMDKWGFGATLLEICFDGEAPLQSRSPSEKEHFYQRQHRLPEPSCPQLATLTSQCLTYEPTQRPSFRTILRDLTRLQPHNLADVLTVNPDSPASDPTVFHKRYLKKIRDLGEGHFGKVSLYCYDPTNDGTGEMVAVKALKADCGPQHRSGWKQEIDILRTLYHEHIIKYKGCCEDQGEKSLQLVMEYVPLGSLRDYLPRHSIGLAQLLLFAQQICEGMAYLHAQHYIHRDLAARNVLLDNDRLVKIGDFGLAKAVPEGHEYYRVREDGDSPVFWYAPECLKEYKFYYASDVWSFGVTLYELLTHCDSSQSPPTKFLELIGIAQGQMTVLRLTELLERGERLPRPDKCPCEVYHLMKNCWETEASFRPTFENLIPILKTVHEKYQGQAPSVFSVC
measurement_notes: pSTAT4 Cell Assay (MSD, NK92 cells)
Format: cell-based
pIC50: −log10 of the molar value.

// worked examples, pIC50 included
{"molecule": "CC(=O)Nc1cc(Nc2ccnc(C(C)(F)F)n2)c(-c2ccc(C(C)(C)O)cn2)cn1 [Example 852]", "pIC50": "≥ 8.00"}
{"molecule": "CNC(=O)Nc1cc(Nc2ccnc(C(C)(F)F)n2)c(-c2cc3n(n2)CCN(C)C3)cn1 [Example 794]", "pIC50": "≥ 8.00"}

The value of pIC50 measured for the molecule CC(=O)Nc1cc(Nc2ccnc(C(C)(F)F)n2)c(-c2ccc(CN3C[C@@H]4C[C@H]3CO4)cn2)cn1 [Example 885] turned out to be ≥ 8.00

The value of pIC50 measured for the molecule CCc1cc(Nc2cc(NC(C)=O)ncc2-c2cnc(CN3CCOCC3)cn2)nc(C(C)(F)F)n1 [Example 899] turned out to be 7.00 to 8.00

The value of pIC50 measured for the molecule CC(=O)Nc1cc(Nc2ccnc(C(C)(F)F)n2)c(-c2cnc(N3CCOCC3)cn2)cn1 [Example 844] turned out to be 7.00 to 8.00

The value of pIC50 measured for the molecule CCc1cc(Nc2cc(NC(C)=O)ncc2-c2ccc(=O)n(C)n2)nc(C(C)(F)F)n1 [Example 865] turned out to be 7.00 to 8.00

The value of pIC50 measured for the molecule COCCOc1nccc(-c2cnc(NC(C)=O)cc2Nc2cc(C)nc(C(C)(F)F)n2)n1 [Example 776] turned out to be ≥ 8.00

* * *

Known pIC50 of a selection of compounds
experimental_target: UniProt P29597
measurement_notes: pSTAT4 Cell Assay (MSD, NK92 cells)
Assay type: cell-based
experimental_context: MSD
pIC50: −log10 of the molar value.

// worked examples, pIC50 included
{"compound": "COC(C)(C)Cn1ccc(-c2cnc(NC(C)=O)cc2Nc2cc(C)nc(C(C)(F)F)n2)n1 [Example 230]", "pIC50": "≥ 8.00"}
{"compound": "CC(=O)Nc1cc(Nc2ccnc(C(C)(F)F)n2)c(-n2cc(C)cn2)cn1 [Example 728]", "pIC50": "7.00 to 8.00"}
{"compound": "CC(=O)Nc1cc(Nc2cc(C)nc(C(C)(F)F)n2)c(OCc2ccc(C)cn2)cn1 [Example 130]", "pIC50": "7.00 to 8.00"}
{"compound": "CC(=O)Nc1cc(Nc2cc(C)nc(C34COC(C3)C4)n2)c(-c2cc3n(n2)CC(F)(F)C3)cn1 [Example 564]", "pIC50": "≥ 8.00"}
{"compound": "[2H]C([2H])([2H])C(=O)Nc1cc(Nc2ccnc(C(C)(F)F)n2)c(-c2ccc(OC)nn2)cn1 [Example 527]", "pIC50": "≥ 8.00"}

The value of pIC50 measured for the compound CC(=O)Nc1cc(Nc2cc(C)nc(C(C)(F)F)n2)c(-c2cn3c(n2)CN(C)CC3)cn1 [Example 239] turned out to be ≥ 8.00

The value of pIC50 measured for the compound CC(=O)Nc1cc(Nc2nccc(C(C)(F)F)n2)c(-c2ccn(C)n2)cn1 [Example 203] turned out to be ≥ 8.00

The value of pIC50 measured for the compound CC(=O)Nc1cc(Nc2cc(C)nc(C(C)(F)F)n2)c(OC[C@H](C)OC(C)(C)C)cn1 [Example 318] turned out to be 6.00 to 7.00

The value of pIC50 measured for the compound CC(=O)Nc1cc(Nc2cc(C)nc(C(C)(F)F)n2)c(-c2cc(C(C)C)ncn2)cn1 [Example 245] turned out to be 7.00 to 8.00
